Listing of entries alongside the reported IC50.
MEASURED TARGET: UniProt:Q13627
EXPERIMENT NOTES: Kinase TR-FRET assay, DYRK1A
Type: biochemical
Design: full-length, wild-type human DYRK1A (NM_001396) with an HA tag; expressed in transfected cells; host or cells: human U2-OS osteosarcoma cells, transient transfection of a pcDNA3.1 plasmid
EXPERIMENTAL CONDITIONS: full-length human kinase, 10 μM ATP
Your answer is read as µM, so omit the unit and give the number.

Consider the reported IC50 for these compounds:
Cc1nc2ccc(-c3cc(N)nc(N)c3)nc2n1CCC(C)(C)C = 0.006
CCCn1c(C)nc2ccc(-c3cc(N)nc(N)c3)nc21 = 0.008
Cn1c(C(F)(F)F)nc2ccc(-c3cc(N)nc(N)c3)nc21 = 0.061
Cc1nc2ccc(-c3cc(N)nc(N)c3)nc2n1Cc1ccc(OC(F)F)cc1 = 0.116
Cc1nc2ccc(-c3cc(N)nc(N)c3)nc2n1C[C@H](C)Oc1ccccn1 (single isomer, unassigned) = 0.016
Cc1nc2ccc(-c3cc(N)nc(N)c3)nc2n1Cc1cc(F)ccc1F = 0.056
Cc1nc2ccc(-c3cc(N)nc(N)c3)nc2n1C[C@@H](C)Oc1ccccn1 (single isomer, unassigned) = 0.007

Next compound, please.
**Query** Please provide the recorded IC50 for `CCC(CC)Cn1c(C)nc2ccc(-c3cc(N)nc(N)c3)nc21` , tested on UniProt:Q13627.
**Result** 0.002

----------
MEASURED TARGET: CLK1 (Homo sapiens, UniProt P49759)
Construct: full-length human kinases from Carna Biosciences; purchased Carna Biosciences 04-126
Sequence (P49759 1-526 isoform P49759-3): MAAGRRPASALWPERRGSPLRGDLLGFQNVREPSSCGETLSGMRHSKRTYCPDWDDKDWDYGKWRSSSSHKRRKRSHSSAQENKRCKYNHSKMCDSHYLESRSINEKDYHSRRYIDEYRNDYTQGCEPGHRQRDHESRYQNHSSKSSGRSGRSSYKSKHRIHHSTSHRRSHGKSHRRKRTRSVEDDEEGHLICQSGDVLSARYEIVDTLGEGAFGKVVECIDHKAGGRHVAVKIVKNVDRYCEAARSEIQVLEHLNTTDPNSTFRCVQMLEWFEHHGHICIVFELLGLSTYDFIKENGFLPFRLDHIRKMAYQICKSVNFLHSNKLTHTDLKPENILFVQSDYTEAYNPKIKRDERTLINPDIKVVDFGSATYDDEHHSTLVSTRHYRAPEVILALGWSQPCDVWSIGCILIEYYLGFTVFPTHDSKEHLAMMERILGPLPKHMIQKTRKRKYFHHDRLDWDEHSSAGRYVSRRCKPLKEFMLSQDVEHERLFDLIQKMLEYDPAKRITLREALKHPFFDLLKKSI
EXPERIMENT NOTES: Kinase TR-FRET assay, CLK1
Type: biochemical
EXPERIMENTAL CONDITIONS: full-length human kinase, 10 μM ATP
QUANTITY NAME: IC50 (µM)
Your answer is read as µM, so omit the unit and give the number.

Cc1nc2ccc(-c3cc(N)nc(N)c3)nc2n1CCCC(F)(F)F = 0.016
COC1CCCCC1CCn1c(C)nc2ccc(-c3cc(N)nc(N)c3)nc21 (stereo not drawn) = 0.029
Cc1nc2ccc(-c3cc(N)nc(N)c3)nc2n1CCc1ccccc1C(F)(F)F = 0.014
Cc1nc2ccc(-c3cc(N)nc(N)c3)nc2n1C[C@H](C)Oc1ccccn1 (single isomer, unassigned) = 0.083
CCCCc1nc2ccc(-c3cc(N)nc(N)c3)nc2n1C1CCCC1 = 0.115

**Query** Please provide the recorded IC50 for Cc1nc2ccc(-c3cc(N)nc(N)c3)nc2n1C1CC(F)C1 (stereo not drawn) , tested on CLK1 (Homo sapiens, UniProt P49759).
**Result** 0.015

**Query** Please provide the recorded IC50 for `CCCCCn1c(C)nc2ccc(-c3cc(N)nc(N)c3)nc21` , tested on CLK1 (Homo sapiens, UniProt P49759).
**Result** 0.018

**Query** Please provide the recorded IC50 for COc1ccc2c(c1)CC(n1c(C)nc3ccc(-c4cc(N)nc(N)c4)nc31)C2 (stereo not drawn) , tested on CLK1 (Homo sapiens, UniProt P49759).
**Result** 0.015

**Query** Please provide the recorded IC50 for `N#Cc1nc2ccc(-c3cc(N)nc(N)c3)nc2n1CCOc1ccccc1` , tested on CLK1 (Homo sapiens, UniProt P49759).
**Result** 0.062

----------
MEASURED TARGET: DYRK1A (Homo sapiens, UniProt Q13627)
EXPERIMENT NOTES: Cellular DYRK1 autophosphorylation assay in U2-OS cells
Type: cell-based
Set-up: full-length, wild-type human DYRK1A (NM_001396) with an HA tag; expressed in transfected cells; host or cells: human U2-OS osteosarcoma cells, transient transfection of a pcDNA3.1 plasmid
EXPERIMENTAL CONDITIONS: U2-OS cells transfected with HA-tagged human DYRK1A, 5 hours exposure; read-out: IC50 (μM) P-Ser520-Dyrk1A -Cell assay
QUANTITY NAME: IC50 (µM)
Your answer is read as µM, so omit the unit and give the number.

**Query** Recorded IC50 for `Cc1nc2ccc(-c3cc(N)nc(N)c3)nc2n1CCOc1cccc(C#N)n1` , please?
**Result** 0.054

**Query** Recorded IC50 for `Cc1cccc(OCCn2c(C)nc3ccc(-c4cc(N)nc(N)c4)nc32)n1` , please?
**Result** 0.106

----------
MEASURED TARGET: DYRK1A (Homo sapiens, UniProt Q13627)
EXPERIMENT NOTES: Cellular DYRK1 autophosphorylation assay in U2-OS cells
Assay type: cell-based
Design: full-length, wild-type human DYRK1A (NM_001396) with an HA tag; expressed in transfected cells; host or cells: human U2-OS osteosarcoma cells, transient transfection of a pcDNA3.1 plasmid
EXPERIMENTAL CONDITIONS: U2-OS cells transfected with HA-tagged human DYRK1A, 5 hours exposure; read-out: IC50 (μM) P-Ser520-Dyrk1A -Cell assay
QUANTITY NAME: IC50 (µM)
Your answer is read as µM, so omit the unit and give the number.

Consider the reported IC50 for these molecules:
Cc1nc2ccc(-c3cc(N)nc(N)c3)nc2n1C[C@H](C)Oc1cccc(F)n1 (single isomer, unassigned) = 0.181
Cc1nc2ccc(-c3cc(N)nc(N)c3)nc2n1CCC1CCCC1 = 0.058
Cc1nc2ccc(-c3cc(N)nc(N)c3)nc2n1[C@H]1C[C@H]1Cc1ccccc1 (single isomer, unassigned) = 0.197
Cc1nc2ccc(-c3cc(N)nc(N)c3)nc2n1CC1CCCCC1 = 0.16
N#Cc1nc2ccc(-c3cc(N)nc(N)c3)nc2n1CCOc1ccccc1 = 0.244

**Query** Please provide the recorded IC50 for `Cc1nc2ccc(-c3cc(N)nc(N)c3)nc2n1Cc1ccoc1` , tested on DYRK1A (Homo sapiens, UniProt Q13627).
**Result** 0.045

**Query** Please provide the recorded IC50 for Cc1nc2ccc(-c3cc(N)nc(N)c3)nc2n1C[C@@H](C)Sc1ccccc1 (single isomer, unassigned) , tested on DYRK1A (Homo sapiens, UniProt Q13627).
**Result** 0.247

**Query** Please provide the recorded IC50 for `Cc1nc2ccc(-c3cc(N)nc(N)c3)nc2n1CCOc1ccccc1F` , tested on DYRK1A (Homo sapiens, UniProt Q13627).
**Result** 0.148

**Query** Please provide the recorded IC50 for `Cc1ccc(OCCn2c(C)nc3ccc(-c4cc(N)nc(N)c4)nc32)cc1` , tested on DYRK1A (Homo sapiens, UniProt Q13627).
**Result** 0.155

**Query** Please provide the recorded IC50 for `Cc1nc2ccc(-c3cc(N)nc(N)c3)nc2n1C1Cc2ccccc2C1` , tested on DYRK1A (Homo sapiens, UniProt Q13627).
**Result** 0.07

----------
MEASURED TARGET: DYRK1B (Homo sapiens, UniProt Q9Y463)
Construct: full-length human kinases from Carna Biosciences; purchased Carna Biosciences 04-131
Sequence (Q9Y463 whole entry): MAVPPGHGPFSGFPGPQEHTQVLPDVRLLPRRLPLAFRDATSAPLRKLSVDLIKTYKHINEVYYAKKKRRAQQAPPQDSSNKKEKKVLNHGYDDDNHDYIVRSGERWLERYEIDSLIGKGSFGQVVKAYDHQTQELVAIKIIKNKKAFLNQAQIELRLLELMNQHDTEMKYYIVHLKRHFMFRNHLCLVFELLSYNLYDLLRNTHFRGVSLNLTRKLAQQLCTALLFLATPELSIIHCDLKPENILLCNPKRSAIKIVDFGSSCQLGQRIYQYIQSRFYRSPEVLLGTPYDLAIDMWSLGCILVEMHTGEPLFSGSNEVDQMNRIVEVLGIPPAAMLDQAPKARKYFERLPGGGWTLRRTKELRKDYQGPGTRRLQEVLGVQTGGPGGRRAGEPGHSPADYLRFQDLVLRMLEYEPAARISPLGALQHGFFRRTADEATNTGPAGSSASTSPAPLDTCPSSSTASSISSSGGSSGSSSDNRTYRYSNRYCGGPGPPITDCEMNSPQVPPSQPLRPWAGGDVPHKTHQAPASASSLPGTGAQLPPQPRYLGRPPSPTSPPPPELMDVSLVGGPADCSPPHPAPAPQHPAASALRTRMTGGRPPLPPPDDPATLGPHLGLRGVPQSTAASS
EXPERIMENT NOTES: Kinase TR-FRET assay, DYRK1B
Format: biochemical
EXPERIMENTAL CONDITIONS: full-length human kinase, 10 μM ATP
Procedure: Inhibition of the enzymatic activity of human kinases was evaluated in a Time-Resolved Fluorescence Resonance Energy Transfer (TR-FRET) assay in 384-well reaction plates. […] Test compounds of the invention were added in reaction buffer at a range of concentrations from 0.1 nM to 30 μM. Following addition of EDTA (Sigma E7889, 10 mM) to stop the reaction, Europium-labelled mouse monoclonal antibody recognizing phospho-Thr232 in MBP (Perkin Elmer TRF0201, 1 nM) was added.
QUANTITY NAME: IC50 (µM)
Your answer is read as µM, so omit the unit and give the number.

Consider the reported IC50 for these molecules:
Cc1nc2ccc(-c3cc(N)nc(N)c3)nc2n1C1CCC1 [Example 23] = 0.008
Cc1nc2ccc(-c3cc(N)nc(N)c3)nc2n1CCOc1cccc2ccccc12 [Example 27] = 0.005
Cc1nc2ccc(-c3cc(N)nc(N)c3)nc2[nH]1 [Example 61] = 0.004
Cc1nc2ccc(-c3cc(N)nc(N)c3)nc2n1C[C@H]1C[C@@H]1c1ccccc1 (single isomer, unassigned) [Example 109] = 0.015

**Query** Recorded IC50 for N#Cc1nc2ccc(-c3cc(N)nc(N)c3)nc2n1C1CCCC1 [Example 221] , please?
**Result** 0.012

**Query** Recorded IC50 for Cc1nc2ccc(-c3cc(N)nc(N)c3)nc2n1Cc1ccccc1Cl [Example 47] , please?
**Result** 0.046

**Query** Recorded IC50 for Cc1nc2ccc(-c3cc(N)nc(N)c3)nc2n1CCCC(F)(F)F [Example 71] , please?
**Result** 0.006

**Query** Recorded IC50 for CCC(C)Cn1c(C)nc2ccc(-c3cc(N)nc(N)c3)nc21 (stereo not drawn) [Example 34] , please?
**Result** 0.015

**Query** Recorded IC50 for COC1CCCCC1CCn1c(C)nc2ccc(-c3cc(N)nc(N)c3)nc21 (stereo not drawn) [Example 95] , please?
**Result** 0.011
